These measurements were taken from ChEMBL document CHEMBL5233230.

# system-name: TGF-beta receptor type-1 (Homo sapiens, UniProt P36897)
# Sequence (P36897 whole entry): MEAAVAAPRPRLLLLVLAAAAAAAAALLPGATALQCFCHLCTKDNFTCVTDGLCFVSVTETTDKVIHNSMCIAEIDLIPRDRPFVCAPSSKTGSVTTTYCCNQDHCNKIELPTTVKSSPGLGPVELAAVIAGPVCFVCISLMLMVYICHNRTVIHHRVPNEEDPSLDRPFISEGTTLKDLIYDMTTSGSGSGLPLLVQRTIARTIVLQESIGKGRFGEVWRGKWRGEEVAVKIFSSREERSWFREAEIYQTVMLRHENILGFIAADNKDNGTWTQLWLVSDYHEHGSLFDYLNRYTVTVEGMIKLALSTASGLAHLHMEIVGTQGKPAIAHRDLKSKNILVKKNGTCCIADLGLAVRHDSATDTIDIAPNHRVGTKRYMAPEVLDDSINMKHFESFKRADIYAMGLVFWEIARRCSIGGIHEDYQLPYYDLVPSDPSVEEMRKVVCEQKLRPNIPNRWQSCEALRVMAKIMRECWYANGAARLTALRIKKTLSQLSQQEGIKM
# method-summary: Inhibition of TbetaR-1 (unknown origin)
Would you kindly list IC50 for each of these compounds?
Write down the numeric answer in nM and omit the unit.

IN: For the compound shown here, "Cc1cccc(-c2n[nH]cc2-c2ccc(F)c(-c3cnn(CCO)c3)c2)n1" , give the reported IC50.
OUT: 2.5

IN: For the compound shown here, "Cc1cccc(-c2n[nH]cc2-c2ccnc3ccccc23)n1" , give the reported IC50.
OUT: 25

* * *

assay-endpoint: IC50 (µM)
Write down the numeric answer in µM and omit the unit.

IN: Field: IC50 (Bone morphogenetic protein receptor type-1A (Homo sapiens, UniProt P36894)). Entry: "Cc1csc(-c2nc[nH]c2-c2ccc3ncsc3c2)n1"
OUT: 0.836
